Attribution: ChEMBL document CHEMBL6071132

assay: Inhibition of BTK C481T mutant (unknown origin); design: species or system Homo sapiens
Measurement label: IC50 (nM)
Give bare numbers, in nM.

# input compound: COc1ccc(F)cc1C(=O)NCc1ccc(-c2nn([C@@H](C)C(F)(F)F)c(N)c2C(N)=O)cc1 [PIRTOBRUTINIB] ; wanted: its IC50
7.23

---

test: Antiproliferative activity against human ROSA KIT WT cells; type: toxicity, cell-based
Measurement label: IC50 (nM)
Give bare numbers, in nM.

What value of IC50 has been reported for the following compound? CCn1c(=O)c(-c2cc(NC(=O)Nc3ccccc3)c(F)cc2Br)cc2cnc(NC)cc21 [RIPRETINIB]
34
